# self-splicing fitness (ln) per entry
Test: self-splicing fitness, log relative to wild type (ln ratio); higher = more splicing; Tetrahymena group I intron in knt gene, E. coli kanamycin selection, DiMSum; sequences stand for … in CUCUCU…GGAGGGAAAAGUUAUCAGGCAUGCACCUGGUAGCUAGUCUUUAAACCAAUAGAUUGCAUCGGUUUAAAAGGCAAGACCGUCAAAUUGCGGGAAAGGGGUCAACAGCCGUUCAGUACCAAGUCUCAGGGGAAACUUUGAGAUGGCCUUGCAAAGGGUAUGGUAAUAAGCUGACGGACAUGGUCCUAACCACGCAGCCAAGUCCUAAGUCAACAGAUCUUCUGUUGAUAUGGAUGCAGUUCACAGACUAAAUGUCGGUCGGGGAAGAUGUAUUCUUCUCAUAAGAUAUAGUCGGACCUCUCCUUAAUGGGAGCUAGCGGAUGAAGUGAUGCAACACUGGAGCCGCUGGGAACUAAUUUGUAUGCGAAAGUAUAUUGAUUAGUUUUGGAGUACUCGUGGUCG;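 note: selection with 25 µg/mL kanamycin versus none on LB agar overnight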
Settings: 37 °C

The examples below pair each entry with its known result.
UAGUAGCAAUAUUACGCCUG    -0.437
CUACAGCAAUAUUACGGUCA    -1.96
UGCCAGCAAUAUUACGUGAA    -0.422
CAGUAGCAAUAUUACGCUGG    -1.34
CUGCAGCAAUAUUACGGCUA    -0.78

Query: What does the data say about its self-splicing fitness (ln)? Entry: CGAUAGCAAUAUUACGGACG
Reply: -0.734

Query: What does the data say about its self-splicing fitness (ln)? Entry: ACAGAGCAAUAUUACGCAGG
Reply: -2.59

* * *

# self-splicing fitness (ln) per entry
Assay: self-splicing fitness, log relative to wild type (ln ratio); higher = more splicing; Tetrahymena group I intron in knt gene, E. coli kanamycin selection, DiMSum; sequences stand for … in CUCUCU…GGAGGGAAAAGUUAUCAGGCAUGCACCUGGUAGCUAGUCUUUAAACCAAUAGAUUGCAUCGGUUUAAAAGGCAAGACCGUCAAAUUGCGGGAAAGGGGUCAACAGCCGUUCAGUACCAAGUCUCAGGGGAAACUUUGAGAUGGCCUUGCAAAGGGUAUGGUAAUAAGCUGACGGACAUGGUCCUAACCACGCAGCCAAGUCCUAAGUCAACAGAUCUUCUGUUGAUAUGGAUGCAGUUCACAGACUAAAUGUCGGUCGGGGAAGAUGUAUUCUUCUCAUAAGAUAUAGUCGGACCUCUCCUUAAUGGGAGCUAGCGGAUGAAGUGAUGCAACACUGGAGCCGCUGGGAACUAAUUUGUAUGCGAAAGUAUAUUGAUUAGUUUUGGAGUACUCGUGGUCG
Conditions: 37 °C
Answer as a number with no unit attached.

The examples below pair each entry with its known result.
CGAGAGCAAUAUUACGACCU    -0.635
GUAAAGCAAUAUUACGUUGA    -0.945

Now turn to the next sequence.
Query: What does the data say about its self-splicing fitness (ln)? Entry: AAGCAGCAAUAUUACGCAGC
Reply: -3.41

* * *

# self-splicing fitness (ln) per entry
Assay: self-splicing fitness, log relative to wild type (ln ratio); higher = more splicing; Tetrahymena group I intron in knt gene, E. coli kanamycin selection, DiMSum; sequences stand for … in CUCUCU…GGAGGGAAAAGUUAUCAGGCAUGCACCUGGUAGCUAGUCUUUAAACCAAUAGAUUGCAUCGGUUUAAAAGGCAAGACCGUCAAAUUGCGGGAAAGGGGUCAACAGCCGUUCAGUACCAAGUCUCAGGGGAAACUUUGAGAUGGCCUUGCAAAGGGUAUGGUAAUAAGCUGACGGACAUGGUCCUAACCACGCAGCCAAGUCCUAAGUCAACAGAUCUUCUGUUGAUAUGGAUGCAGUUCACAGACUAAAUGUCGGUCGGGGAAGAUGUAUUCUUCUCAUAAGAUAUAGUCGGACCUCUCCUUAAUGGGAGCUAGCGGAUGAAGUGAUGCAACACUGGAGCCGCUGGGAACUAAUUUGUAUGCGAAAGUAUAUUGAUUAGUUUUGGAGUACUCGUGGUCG
Conditions: 37 °C
Answer as a number with no unit attached.

UCCAAGCAAUAUUACGGCGU    -0.529
GCCGAGCAAUAUUACGUACC    -0.678
UGCAAGCAAUAUUACGGGGG    -2.04

Query: What does the data say about its self-splicing fitness (ln)? Entry: GGGGAGCAAUAUUACGGAUU
Reply: -2.15

Query: What does the data say about its self-splicing fitness (ln)? Entry: GGGAAGCAAUAUUACGUUAC
Reply: -1.15

Query: What does the data say about its self-splicing fitness (ln)? Entry: AUUUAGCAAUAUUACGAGUG
Reply: -0.743

Query: What does the data say about its self-splicing fitness (ln)? Entry: ACACAGCAAUAUUACGGUGU
Reply: -2.92

Query: What does the data say about its self-splicing fitness (ln)? Entry: UCAGAGCAAUAUUACGUUCA
Reply: -2.48

Query: What does the data say about its self-splicing fitness (ln)? Entry: AAUUAGCAAUAUUACGCAUC
Reply: -1.15

Query: What does the data say about its self-splicing fitness (ln)? Entry: UUCCAGCAAUAUUACGUUGC
Reply: -2.47

Query: What does the data say about its self-splicing fitness (ln)? Entry: AUCUAGCAAUAUUACGACCG
Reply: -0.253
